Reference source for all entries: ChEMBL document CHEMBL1134554

target: Neutrophil collagenase (Homo sapiens, UniProt P22894); experiment: Inhibition of matrix metalloprotease-8
Sequence (P22894 whole entry): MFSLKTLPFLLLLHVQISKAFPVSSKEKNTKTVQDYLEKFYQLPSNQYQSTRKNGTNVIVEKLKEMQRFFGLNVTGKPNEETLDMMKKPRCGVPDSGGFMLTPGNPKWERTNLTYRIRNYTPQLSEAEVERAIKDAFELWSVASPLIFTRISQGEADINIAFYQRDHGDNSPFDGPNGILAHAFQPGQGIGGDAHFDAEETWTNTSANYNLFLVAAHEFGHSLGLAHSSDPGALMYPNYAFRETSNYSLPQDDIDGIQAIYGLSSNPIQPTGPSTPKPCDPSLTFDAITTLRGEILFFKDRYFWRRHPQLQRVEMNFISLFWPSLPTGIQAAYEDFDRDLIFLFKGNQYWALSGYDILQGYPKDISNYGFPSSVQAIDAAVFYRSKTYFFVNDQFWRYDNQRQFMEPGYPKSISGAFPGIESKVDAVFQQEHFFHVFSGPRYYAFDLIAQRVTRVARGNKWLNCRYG
reported-metric: pKi
Numbers only, as −log10 of the molar value.

Incoming: Please give the measured pKi for this compound: CNC(=O)CNC(=O)[C@@H]1Cc2ccc(cc2)OCCC[C@H](C(=O)NO)[C@@H](CC(C)C)C(=O)N1
Outgoing: 9.30

====

assay: Pharmacokinetic data in Beagle dogs at 2.0 mg/kg oral dose.; type: ADME, organism-based, Canis lupus familiaris; parameters: dose 2 mg/kg, route oral; conditions: dog, in vivo
reported-metric: AUC (ng·h/mL)
Give bare numbers, in ng·h/mL.

Incoming: Please give the measured AUC for this compound: CC(C)C[C@H]1C(=O)N[C@H](C(=O)NCC(=O)N2CCOCC2)CCCCNC(=O)OCCC[C@@H]1C(=O)NO
Outgoing: 1910

====

test: Pharmacokinetic data in Beagle dogs at 0.5 mg/kg i.v. dose and 2.0 mg/kg p.o. dose; format: ADME, organism-based, Canis lupus familiaris; conditions: dog, in vivo, po
reported-metric: bioavailability (%)
One number for each entry, in %.

Incoming: Please give the measured bioavailability for this compound: CC(C)C[C@H]1C(=O)N[C@H](C(=O)NCC(=O)N2CCOCC2)CCCCNC(=O)OCCC[C@@H]1C(=O)NO
Outgoing: 23

====

Disintegrin and metalloproteinase domain-containing protein 17 (Homo sapiens): reported pIC50 for various compounds.
Sequence (P78536 whole entry, the tested form may be a part): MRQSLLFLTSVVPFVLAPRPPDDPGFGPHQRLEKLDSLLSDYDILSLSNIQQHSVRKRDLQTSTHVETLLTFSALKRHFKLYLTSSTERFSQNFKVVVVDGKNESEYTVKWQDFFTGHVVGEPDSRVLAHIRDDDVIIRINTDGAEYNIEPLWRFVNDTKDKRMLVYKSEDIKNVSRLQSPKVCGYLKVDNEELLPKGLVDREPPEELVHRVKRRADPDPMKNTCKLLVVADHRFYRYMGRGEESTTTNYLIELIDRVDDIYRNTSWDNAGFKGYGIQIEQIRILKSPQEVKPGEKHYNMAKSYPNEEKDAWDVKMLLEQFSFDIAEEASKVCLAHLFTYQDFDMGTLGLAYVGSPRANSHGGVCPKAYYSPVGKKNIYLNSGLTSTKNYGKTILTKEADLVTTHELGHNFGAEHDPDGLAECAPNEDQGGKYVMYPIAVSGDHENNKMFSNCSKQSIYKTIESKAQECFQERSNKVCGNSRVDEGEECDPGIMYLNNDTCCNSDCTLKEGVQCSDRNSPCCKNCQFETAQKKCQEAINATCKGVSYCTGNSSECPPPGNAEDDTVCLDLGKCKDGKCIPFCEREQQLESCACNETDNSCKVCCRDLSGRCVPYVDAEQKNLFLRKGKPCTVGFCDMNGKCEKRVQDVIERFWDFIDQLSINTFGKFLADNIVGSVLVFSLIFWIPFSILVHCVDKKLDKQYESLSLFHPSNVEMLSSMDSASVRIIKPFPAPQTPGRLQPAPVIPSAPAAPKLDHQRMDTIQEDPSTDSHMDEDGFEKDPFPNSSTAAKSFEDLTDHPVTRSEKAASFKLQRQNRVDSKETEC
Give bare numbers, as −log10 of the molar value.

Incoming: Please give the measured pIC50 for this compound: CNC(=O)[C@@H]1CCc2ccc(cc2)OCCC[C@H](C(=O)NO)[C@@H](CC(C)C)C(=O)N1
Outgoing: 6.00

Incoming: Please give the measured pIC50 for this compound: CC(C)C[C@H]1C(=O)N[C@H](C(=O)N[C@@H]2c3ccccc3C[C@@H]2O)CCCCNC(=O)OCCC[C@@H]1C(=O)NO
Outgoing: 6.96

Incoming: Please give the measured pIC50 for this compound: CNC(=O)[C@@H](CCCCNC(=O)OC(C)(C)C)NC(=O)[C@@H]1CCCCNC(=O)OCCC[C@H](C(=O)NO)[C@@H](CC(C)C)C(=O)N1
Outgoing: 6.68

Incoming: Please give the measured pIC50 for this compound: CCCCCC[C@H]1C(=O)N[C@H](C(=O)N[C@H](COC(C)(C)C)C(=O)NC)Cc2ccc(cc2)OCCC[C@@H]1C(=O)NO
Outgoing: 6.52

Incoming: Please give the measured pIC50 for this compound: CNC(=O)[C@H](C)NC(=O)[C@@H]1Cc2ccc(cc2)OCCC[C@H](C(=O)NO)[C@@H](CC(C)C)C(=O)N1
Outgoing: 5.35

Please give pIC50, item by item, for the list that follows.
1. CC(C)C[C@H]1C(=O)N[C@H](C(=O)NCC(=O)Nc2ccccn2)CCCCN(C)C(=O)OCCC[C@@H]1C(=O)NO
2. CNC(=O)[C@@H](C)NC(=O)[C@@H]1CCCCNC(=O)OCCC[C@H](C(=O)NO)[C@@H](CC(C)C)C(=O)N1

Outgoing:
1: 6.70; 2: 6.57

Please give pIC50, item by item, for the list that follows.
1. CNC(=O)[C@@H](C)NC(=O)[C@@H]1Cc2ccc(cc2)OCCC[C@H](C(=O)NO)[C@@H](CC(C)C)C(=O)N1
2. COC(=O)c1csc(NC(=O)[C@@H]2CCCCNC(=O)OCCC[C@H](C(=O)NO)[C@@H](CC(C)C)C(=O)N2)n1
3. CNC(=O)[C@@H](COC(C)(C)C)NC(=O)[C@@H]1Cc2ccc(cc2)OCCC[C@H](C(=O)NO)[C@@H](CC(C)C)C(=O)N1
4. CC(C)C[C@H]1C(=O)N[C@H](C(=O)NCC(=O)NCC(F)(F)F)Cc2ccc(cc2)OCCC[C@@H]1C(=O)NO
5. CNC(=O)[C@@H]1CCCCN(C(=O)OC(C)(C)C)CCC[C@H](C(=O)NO)[C@@H](CC(C)C)C(=O)N1
6. CNC(=O)[C@@H](CCCCN)NC(=O)[C@@H]1Cc2ccc(cc2)OCCC[C@H](C(=O)NO)[C@@H](CC(C)C)C(=O)N1
7. CC(C)C[C@H]1C(=O)N[C@H](C(=O)NCC(=O)N2CCN(C)CC2)CCCCN(C)C(=O)OCCC[C@@H]1C(=O)NO
8. CC(C)C[C@H]1C(=O)N[C@H](C(=O)NCC(=O)N2CCN(c3ccccn3)CC2)CCCCNC(=O)OCCC[C@@H]1C(=O)NO

Outgoing:
[6.15, 7.08, 6.02, 6.62, 5.85, 6.08, 6.92, 7.15]

Please give pIC50, item by item, for the list that follows.
1. CC(C)C[C@H]1C(=O)N[C@H](C(=O)NCCc2ccccc2O)CCCCNC(=O)OCCC[C@@H]1C(=O)NO
2. CCOC(=O)N1CCC(NC(=O)[C@@H]2CCCCNC(=O)OCCC[C@H](C(=O)NO)[C@@H](CC(C)C)C(=O)N2)CC1
3. CCCCCC[C@H]1C(=O)N[C@H](C(=O)NCCc2ccc(S(N)(=O)=O)cc2)Cc2ccc(cc2)OCCC[C@@H]1C(=O)NO
4. CNC(=O)[C@@H]1CCCc2ccc(cc2)OCCC[C@H](C(=O)NO)[C@@H](CC(C)C)C(=O)N1
5. CC(C)C[C@H]1C(=O)N[C@H](C(=O)NCC(=O)N2CCCC(C(=O)O)C2)CCCCNC(=O)OCCC[C@@H]1C(=O)NO (stereo not given in full)
6. CC(C)C[C@H]1C(=O)N[C@H](C(=O)NC(C)C)Cc2ccc(cc2)OCCC[C@@H]1C(=O)NO
7. CCOC(=O)N1CCN(C(=O)CNC(=O)[C@@H]2CCCCNC(=O)OCCC[C@H](C(=O)NO)[C@@H](CC(C)C)C(=O)N2)CC1
8. CCCCCC[C@H]1C(=O)N[C@H](C(=O)NCCCn2ccnc2)Cc2ccc(cc2)OCCC[C@@H]1C(=O)NO

Outgoing:
7.07
6.89
6.32
5.62
6.24
6.15
6.89
6.09

Please give pIC50, item by item, for the list that follows.
1. CC(C)C[C@H]1C(=O)N[C@H](C(=O)N[C@H]2c3ccccc3C[C@H]2O)CCCCNC(=O)OCCC[C@@H]1C(=O)NO
2. CC(C)C[C@H]1C(=O)N[C@H](C(=O)Nc2nc(CC(=O)N3CCOCC3)cs2)CCCCNC(=O)OCCC[C@@H]1C(=O)NO

Outgoing:
1: 6.40; 2: 6.92
